Data provenance is PubChem BioAssay (NCI).

Test system: SK-MEL-2 melanoma
Test Method Notes: NCI tumour cell line growth inhibition, 48 h
Quantity Name: TGI

Compound	TGI
CCN(Cc1ccc(OC)cc1)c1ccc(CO)c(Cl)c1	20.2 µM
COCN1C(=O)[C@@H]2CCCN2C(=O)c2cc(OC)c(Cc3ccccc3)cc21	> 100 µM
COC(=O)[C@@H](C)C[C@H](Cc1ccccc1)NC(=O)c1nc([C@@H](C[C@H](C(C)C)N(C)C(=O)[C@@H](NC(=O)[C@H]2C[C@H](O)CCN2C)C(C)C)OC(C)=O)sc1C(C)C	> 11.1 µM

According to the records, this compound CCOc1ccc(N(C)c2ccc(/C=C/C3=[N+](C)c4ccccc4C3(C)C)cc2)cc1 displays TGI of 1.25 µM

According to the records, this compound O=C1C2C3CC4C5C3C1C5C1(SCCS1)C42 (centres undefined) displays TGI of > 100 µM

According to the records, this compound CC1(OCc2ccccc2)C(=O)N2C1NCC2(C)C (centres undefined) displays TGI of > 100 µM

---

Tested on: SW-620 colon
Test Method Notes: NCI tumour cell line growth inhibition, 48 h
Quantity Name: TGI

// below: answered compounds
> print(dat)
                                   compound  quantity.name  recorded.value
1  COC(=O)C(=O)C(C#N)c1nc2ccccc2s1 (stereo not given)            TGI        > 100 µM
2  CC(C)=CCc1cc2c(cc1O)C1=C(C(=O)C3=C(NCCS3(=O)=O)C1=O)C(C=C(C)C)O2 (stereo not given)            TGI       > 16.7 µM
3  CC(=O)C1(O)CC2(c3ccccc3)C(=O)C1(c1ccccc1)C(c1ccccc1)=C2c1ccccc1 (stereo not given)            TGI        > 100 µM
4  CCCc1nnc2sc(COc3ccc(OCc4nn5c(CCC)nnc5s4)c(Cl)c3)nn12            TGI        > 100 µM
5  C#CCN(Cc1ccc2nc(-c3ccccc3)c(Cl)nc2c1)c1ccc(F)cc1            TGI        > 100 µM
6    COc1ccc(/C=C/C(=O)c2cc(OC)cc(OC)c2)cc1            TGI         17.6 µM
7               COC(=O)c1cc2ccc(O)c(O)c2cn1            TGI         32.4 µM
8                   O=C1CSCC(=O)Nc2ccccc2N1            TGI        > 100 µM
9  CN(C)CCNc1ccc(NCC[N+](C)(C)Cc2ccc([N+](=O)[O-])cc2)c2c1C(=O)c1c(O)ccc(O)c1C2=O            TGI        > 100 µM

Sample Cc1ccc2c(c1C)C(=O)C1(C2)Cc2ccc3c(c2C1=O)CCC3 (stereo not given) , system: SW-620 colon. Its TGI is > 100 µM

---

System: RXF 393 renal
Test Method Notes: NCI tumour cell line growth inhibition, 48 h
# TGI values compiled below

// below: answered molecules
> print(dat)
                                   molecule  quantity.name  recorded.value
1  CC(C)(C)N(Cc1ccccc1)C(=O)/C=C\S(=O)c1ccccc1 (stereo not given)            TGI         13.8 µM
2  O=C([CH-]C(=O)c1ccccc1)c1ccccc1.O=C([CH-]C(=O)c1ccccc1)c1ccccc1.O=C([CH-]C(=O)c1ccccc1)c1ccccc1.[Ga+3]            TGI        > 100 µM

According to the records, this molecule COc1ccc2c(O)c(Oc3ccc(Cl)cc3)c(=O)oc2c1 displays TGI of > 100 µM

According to the records, this molecule O=C1c2ccccc2C(=O)N1/N=C1/SC(=Nc2ccccc2)C(=Nc2ccccc2)N1c1ccccc1 displays TGI of 14.3 µM

According to the records, this molecule Cn1cc(C2=C(c3ccsc3)C(=O)NC2=O)c2ccccc21 displays TGI of > 25 µM

---

System: T-47D breast
Test Method Notes: NCI tumour cell line growth inhibition, 48 h
# TGI values compiled below

// below: answered compounds
> print(dat)
                                   compound  experimental.target  recorded.value
1  COc1cc([C@@H]2c3cc4c(cc3[C@H](OC3OC5COC(c6ccco6)OC5C(O)C3O)C3COC(=O)[C@@H]32)OCO4)cc(OC)c1OC (some centres undefined)         T-47D breast        > 100 µM
2     COc1cc2cc(NCc3cccc(Cl)c3)nc(C)c2cc1OC         T-47D breast         9.31 µM
3                        COC(=NC(C)C)NC(C)C         T-47D breast        > 100 µM
4  COc1cccc2c1nc(C(F)F)n2-c1nc(-c2ccc(NS(=O)(=O)CCN(C)C)cc2)nc(N2CCOCC2)n1         T-47D breast       0.0882 µM
5  COc1ccc2c(c1)/C(=C/c1c(O)[nH]c(=S)[nH]c1=O)C=N2         T-47D breast        > 100 µM

According to the records, this compound NC(N)=N/N=C/c1c(-c2ccccc2[N+](=O)[O-])nc2sccn12 displays TGI of 59 µM

---

Test system: ACHN renal
Test Method Notes: NCI tumour cell line growth inhibition, 48 h
Quantity Name: TGI

// below: answered compounds
> print(dat)
                                 mol.smiles  experimental.target  recorded.value
1  CCOC(=O)CC1=N/C(=N/C(=N)N[N+](=O)[O-])SC1           ACHN renal        > 100 µM
2  Cc1cn([C@@H]2O[C@H](CO[Si](C)(C)C(C)(C)C)[C@]3(O[C@H]3C(=O)NO)[C@H]2O[Si](C)(C)C(C)(C)C)c(=O)[nH]c1=O           ACHN renal         3.06 µM
3  COc1ccc2c(c1)[C@@H](NC(C)=O)CCc1cc(OC)c(OC)c(OC)c1-2           ACHN renal        > 100 µM

Kindly consider the entry below.
Sample O=C(NCc1cn(Cc2cccc(Oc3ccccc3)c2)nn1)c1cccnc1Nc1ccc(F)cc1 , system: ACHN renal. Its TGI is > 100 µM

---

Tested on: HOP-62 NSCLC
Test Method Notes: NCI tumour cell line growth inhibition, 48 h
Quantity Name: TGI

// below: answered molecules
> print(dat)
                                   molecule  recorded.value
1  CCCCCCCCCCCCCCCCOCC(COP(=O)(O)OCC1OC(n2cc(CC)c(=O)[nH]c2=O)CC1O)OC(=O)CCCCCCCCCCCCCCC (centres undefined)        > 100 µM
2  CN1CCN(c2cc3[nH]c4cc(O)cc(O)c4c(=O)c3cc2N)CC1        > 100 µM
3  CC1=C(O)C(=O)C=C2C1=CC=C1[C@@]2(C)CC[C@@]2(C)C3C[C@@H](C)C(=O)[C@@H](O)[C@]3(C)CC[C@]12C (some centres undefined)         11.6 µM

According to the records, this molecule Cc1nc2ccc(F)cc2c2c1CCS2 displays TGI of > 100 µM

According to the records, this molecule O=C1c2ccccc2C(=O)N1/N=C1/SC(=Nc2ccccc2)C(=Nc2ccccc2)N1c1ccccc1 displays TGI of > 100 µM

According to the records, this molecule O=C1C=CC2(C=C1)O[C@H](COCc1ccccc1)[C@@H](COCc1ccccc1)O2 displays TGI of 5.12 µM

According to the records, this molecule CC(C)=CCc1cc2c(cc1O)C1=C(C(=O)C3=C(NCCS3(=O)=O)C1=O)C(C=C(C)C)O2 (centres undefined) displays TGI of > 16.7 µM

According to the records, this molecule COc1cc2nc(-c3cccs3)nc(Nc3cccc([N+](=O)[O-])c3)c2cc1OC displays TGI of 36.1 µM

According to the records, this molecule COc1ccc(C2=NN(C(N)=S)C(c3ccc4c(c3)OCO4)C2)cc1 (centres undefined) displays TGI of > 100 µM

According to the records, this molecule O=C(O)c1cc(CCc2ccc(O)c(O)c2)ccc1O displays TGI of > 100 µM

According to the records, this molecule N#CC(C(=O)CCCC(=O)Nc1ccccc1[N+](=O)[O-])c1c(Cl)cccc1Cl (centres undefined) displays TGI of > 100 µM

According to the records, this molecule CCCN(CCC)C(=S)Sc1nc(C)nc(N2CCN(c3nc(C)nc(SC(=S)N(CCC)CCC)c3[N+](=O)[O-])CC2)c1[N+](=O)[O-] displays TGI of > 85 µM

According to the records, this molecule Cc1cccc2cc(/C=C/C(=O)/C=C/c3ccc(Cl)cc3)c(=O)[nH]c12 displays TGI of > 100 µM

According to the records, this molecule Nc1ccccc1N displays TGI of > 100 µM

According to the records, this molecule CCN(Cc1ccc(OC)cc1)c1ccc(CO)c(Cl)c1 displays TGI of 29.4 µM

According to the records, this molecule COC(=O)c1c2c(c(C)[n+]([O-])c1C)C(=O)C(NCc1ccc(OC)cc1)=CC2=O displays TGI of 97.2 µM

According to the records, this molecule Clc1ccc(OCC2NC3CCC2CC3)cn1 (centres undefined) displays TGI of 67.1 µM

According to the records, this molecule C/C(=N/NC(=O)c1ccccc1S(N)(=O)=O)C(CN1CCCCC1)C(C1=C(O)C2C=CC=CC2OC1=O)c1ccccc1 (centres undefined) displays TGI of > 100 µM

According to the records, this molecule CN(C)CCNc1ccc(NCC[N+](C)(C)Cc2ccc([N+](=O)[O-])cc2)c2c1C(=O)c1c(O)ccc(O)c1C2=O displays TGI of > 100 µM
